- Test system: RARg homodimer (NR concentration 270 nM)
- test.protocol: PBM binding z-score (relative to random genomic background probes); higher = stronger binding; sequences stand for … in GC…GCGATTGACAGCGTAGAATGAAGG
Each entry below carries its reported PBM binding z-score.
assay.metric: PBM binding z-score

1. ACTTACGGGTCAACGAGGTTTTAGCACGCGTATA
4.9
2. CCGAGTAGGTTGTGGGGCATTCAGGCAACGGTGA
-0.497
3. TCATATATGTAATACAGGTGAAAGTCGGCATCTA
0.586
4. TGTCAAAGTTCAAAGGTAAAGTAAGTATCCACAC
6.06
5. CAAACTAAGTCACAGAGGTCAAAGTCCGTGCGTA
4.96
6. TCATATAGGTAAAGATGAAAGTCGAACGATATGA
0.586
7. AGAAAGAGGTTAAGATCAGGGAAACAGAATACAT
1.86

====

Each entry below carries its reported PBM binding z-score.
- System: PXR homodimer (NR concentration 270 nM)
- test.protocol: PBM binding z-score (relative to random genomic background probes); higher = stronger binding; sequences stand for … in GC…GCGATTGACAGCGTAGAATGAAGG
assay.metric: PBM binding z-score

1. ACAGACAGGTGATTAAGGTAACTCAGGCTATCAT
0.294
2. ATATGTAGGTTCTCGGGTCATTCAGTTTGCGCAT
8.95
3. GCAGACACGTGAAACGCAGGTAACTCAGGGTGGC
-0.73
4. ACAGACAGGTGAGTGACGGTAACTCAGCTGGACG
-0.705
5. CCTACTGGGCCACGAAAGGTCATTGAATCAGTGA
1.26
6. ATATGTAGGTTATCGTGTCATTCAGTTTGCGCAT
0.812
7. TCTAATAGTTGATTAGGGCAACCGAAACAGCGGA
-0.117
8. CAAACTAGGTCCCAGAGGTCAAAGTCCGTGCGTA
2.66
9. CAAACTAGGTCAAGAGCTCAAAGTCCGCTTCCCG
-0.169
10. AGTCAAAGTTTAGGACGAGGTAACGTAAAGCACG
-0.0643
11. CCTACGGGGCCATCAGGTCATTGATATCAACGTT
0.639
12. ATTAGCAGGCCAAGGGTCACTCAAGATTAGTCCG
-0.179
13. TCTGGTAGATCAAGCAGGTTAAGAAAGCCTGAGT
0.156
14. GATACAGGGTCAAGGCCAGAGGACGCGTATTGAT
0.296

====

Each entry below carries its reported PBM binding z-score.
- Test system: RARg homodimer (NR concentration 270 nM)
- test.protocol: PBM binding z-score (relative to random genomic background probes); higher = stronger binding; sequences stand for … in GC…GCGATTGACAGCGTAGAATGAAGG
assay.metric: PBM binding z-score

1) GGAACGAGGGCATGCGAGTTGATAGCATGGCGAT
1.6
2) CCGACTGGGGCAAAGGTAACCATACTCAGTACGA
0.824
3) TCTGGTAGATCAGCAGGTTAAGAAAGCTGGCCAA
-0.628
4) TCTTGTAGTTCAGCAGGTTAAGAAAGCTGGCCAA
1.25
5) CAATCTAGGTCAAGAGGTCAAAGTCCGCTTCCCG
7.48
6) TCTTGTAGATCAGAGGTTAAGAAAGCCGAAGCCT
0.221
7) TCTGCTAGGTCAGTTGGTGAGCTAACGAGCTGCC
3.76
8) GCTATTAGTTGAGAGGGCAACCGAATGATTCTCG
1.01
9) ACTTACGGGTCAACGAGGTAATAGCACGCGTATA
5.19
10) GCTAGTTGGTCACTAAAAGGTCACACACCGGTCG
5.45
11) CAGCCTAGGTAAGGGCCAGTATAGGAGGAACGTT
0.264
12) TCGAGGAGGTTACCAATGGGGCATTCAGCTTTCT
1.13
13) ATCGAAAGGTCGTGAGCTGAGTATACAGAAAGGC
3.74
14) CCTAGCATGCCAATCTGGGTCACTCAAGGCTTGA
0.691
15) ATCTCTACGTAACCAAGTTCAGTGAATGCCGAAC
0.741
16) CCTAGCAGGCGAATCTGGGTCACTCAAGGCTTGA
0.428
17) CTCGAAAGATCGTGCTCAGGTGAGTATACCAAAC
-0.229
18) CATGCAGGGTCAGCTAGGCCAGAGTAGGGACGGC
5.06

====

- Test system: PXR homodimer (NR concentration 270 nM)
- test.protocol: PBM binding z-score (relative to random genomic background probes); higher = stronger binding; sequences stand for … in GC…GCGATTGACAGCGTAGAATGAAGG
Each entry below carries its reported PBM binding z-score.
assay.metric: PBM binding z-score

1) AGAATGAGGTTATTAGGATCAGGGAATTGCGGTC
0.752
2) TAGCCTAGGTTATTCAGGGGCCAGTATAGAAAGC
-0.463
3) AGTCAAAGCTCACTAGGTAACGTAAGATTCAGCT
-0.294
4) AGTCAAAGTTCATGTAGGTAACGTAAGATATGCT
5.21

====

Each entry below carries its reported PBM binding z-score.
- Test system: RARa homodimer (NR concentration 270 nM)
- test.protocol: PBM binding z-score (relative to random genomic background probes); higher = stronger binding; sequences stand for … in GC…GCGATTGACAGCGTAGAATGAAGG
assay.metric: PBM binding z-score

1. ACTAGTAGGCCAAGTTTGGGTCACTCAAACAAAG
-0.227
2. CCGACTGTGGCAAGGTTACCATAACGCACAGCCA
0.511
3. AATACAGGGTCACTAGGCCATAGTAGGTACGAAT
0.595
4. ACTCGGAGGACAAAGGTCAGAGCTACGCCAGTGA
2.21
5. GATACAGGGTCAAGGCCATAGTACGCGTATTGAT
0.823
6. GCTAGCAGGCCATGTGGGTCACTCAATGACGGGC
-0.664

====

- Tested on: RARg:RXRa (NR concentration 270 nM, RXRa partner concentration 90 nM)
- test.protocol: PBM binding z-score (relative to random genomic background probes); higher = stronger binding; sequences stand for … in GC…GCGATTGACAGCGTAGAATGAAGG
assay.metric: PBM binding z-score

1) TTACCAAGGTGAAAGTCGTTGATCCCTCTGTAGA
0.61
2) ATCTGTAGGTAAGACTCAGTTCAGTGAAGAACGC
0.15
3) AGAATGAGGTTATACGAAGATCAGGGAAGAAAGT
1.71
4) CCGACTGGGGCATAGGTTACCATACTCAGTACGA
0.922
5) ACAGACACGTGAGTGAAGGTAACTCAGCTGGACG
-0.114
6) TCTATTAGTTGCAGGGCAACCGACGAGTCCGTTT
0.104
7) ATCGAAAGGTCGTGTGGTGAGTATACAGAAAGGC
4.21
8) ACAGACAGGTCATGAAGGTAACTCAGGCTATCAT
4.63
9) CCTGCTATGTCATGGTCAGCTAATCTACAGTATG
0.518
10) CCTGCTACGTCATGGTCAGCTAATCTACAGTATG
0.00255
11) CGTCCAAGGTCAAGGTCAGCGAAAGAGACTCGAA
6.94
12) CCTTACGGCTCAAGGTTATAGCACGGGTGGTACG
0.285
13) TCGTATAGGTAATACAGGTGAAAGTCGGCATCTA
0.62
14) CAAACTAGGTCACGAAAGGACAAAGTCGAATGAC
5.37
15) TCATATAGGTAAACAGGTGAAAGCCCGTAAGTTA
0.546
16) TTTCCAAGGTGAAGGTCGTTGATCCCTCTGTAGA
1.51
17) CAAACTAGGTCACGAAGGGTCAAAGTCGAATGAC
7.01
18) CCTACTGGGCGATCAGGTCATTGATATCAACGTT
1.35
19) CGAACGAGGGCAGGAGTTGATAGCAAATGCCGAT
0.906
20) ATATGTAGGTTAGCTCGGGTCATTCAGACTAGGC
2.48
21) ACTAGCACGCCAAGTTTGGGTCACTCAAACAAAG
0.693
22) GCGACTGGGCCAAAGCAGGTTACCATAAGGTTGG
-0.0916
23) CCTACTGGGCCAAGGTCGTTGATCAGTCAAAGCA
0.488
24) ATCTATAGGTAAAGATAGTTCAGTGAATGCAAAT
0.887
25) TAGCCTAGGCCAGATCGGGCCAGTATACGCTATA
-0.451
26) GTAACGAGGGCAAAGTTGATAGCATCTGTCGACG
1.97
27) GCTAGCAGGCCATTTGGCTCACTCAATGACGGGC
-0.42
28) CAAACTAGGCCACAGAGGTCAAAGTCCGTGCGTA
5.71
29) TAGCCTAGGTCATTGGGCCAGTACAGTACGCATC
3.95
30) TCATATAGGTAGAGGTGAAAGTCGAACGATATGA
1.18
31) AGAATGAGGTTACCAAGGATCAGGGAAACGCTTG
1.94
32) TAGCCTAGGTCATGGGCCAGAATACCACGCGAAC
4.27
33) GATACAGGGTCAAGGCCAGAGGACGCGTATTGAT
5.29
